method_notes: Fraction unbound in plasma of NMRI mouse at 200 mg/kg, po
Assay type: ADME, organism-based
Design: dose 200 mg/kg, route oral
experimental_readout: fraction unbound
Could you keep your reply to the number by itself?

INPUT: Returns the measured fraction unbound for the input compound. Input: CSc1ccc(OCc2ncc([N+](=O)[O-])n2C)cc1
OUTPUT: 0.147

====

Test system: Trypanosoma brucei
method_notes: Antimicrobial activity against Trypanosoma brucei NfxR2
Type: functional, organism-based
experimental_readout: EC50 (µM)
Your answer is read as µM, so omit the unit and give the number.

INPUT: Dear colleague, I am looking for the recorded EC50 of the following molecule: NCCCC(N)(C(=O)O)C(F)F (centres undefined)
OUTPUT: 11.5

INPUT: Need EC50, item O=[N+]([O-])c1cn2c(n1)OC[C@@H](OCc1ccc(OC(F)(F)F)cc1)C2
OUTPUT: 30.8

INPUT: What measured EC50 goes with NC(=O)N/N=C/c1ccc([N+](=O)[O-])o1 ?
OUTPUT: 3.7

INPUT: Please look up its EC50: N=C(N)c1ccc(OCCCCCOc2ccc(C(=N)N)cc2)cc1
OUTPUT: 0.0017

INPUT: Name the recorded EC50 for NC(=O)c1cc(N2CC2)c([N+](=O)[O-])cc1[N+](=O)[O-] .
OUTPUT: 10.2

INPUT: EC50 lookup needed for O=C(Cn1ccnc1[N+](=O)[O-])NCc1ccccc1 , thanks.
OUTPUT: 155

INPUT: Give the measured EC50 of Cn1c([N+](=O)[O-])cnc1COc1ccc([S+](C)[O-])cc1 (centres undefined) [FEXINIDAZOLE SULFOXIDE] .
OUTPUT: 21

INPUT: Value lookup for EC50; key = Cn1c([N+](=O)[O-])cnc1COc1ccc(S(C)(=O)=O)cc1
OUTPUT: 9.5

Source listed as ChEMBL document CHEMBL1629689.
